assay: TRM-201-PK-102 single-dose four-period crossover pharmacokinetic study, fasted healthy subjects; assay type: in vivo, human; settings: human, plasma, oral, 12.5 mg, 102 study, 18-40 years, read-out: geometric mean AUC0-∞
Assay endpoint: AUC(0-inf) (ng·h/mL)
Give just the number in ng·h/mL; leave the unit off.

Query block: Would you mind telling me what AUC(0-inf) value was observed for `CS(=O)(=O)c1ccc(C2=C(c3ccccc3)C(=O)OC2)cc1` ?
Result block: 1570

====

experiment: TRM-201-PK-102 single-dose four-period crossover pharmacokinetic study, fasted healthy subjects; assay type: in vivo, human; settings: human, plasma, oral, 17.5 mg, 102 study, 18-40 years, read-out: arithmetic mean Cmax
Assay endpoint: Cmax (ng/mL)
Only the number, expressed in ng/mL, is required.

Query block: For `CS(=O)(=O)c1ccc(C2=C(c3ccccc3)C(=O)OC2)cc1` , what is its reported Cmax?
Result block: 237

Reference for the values: patent US10945992B1
